Data provenance: paper PMC4154765

Target: GR DBD (UniProt P04150 417-506)
Sequence (P04150 417-506): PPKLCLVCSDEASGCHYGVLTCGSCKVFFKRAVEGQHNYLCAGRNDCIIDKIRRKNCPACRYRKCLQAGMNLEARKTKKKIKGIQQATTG
Assay: fluorescence polarization; 10 nM DNA; slight positive cooperativity; endpoint called affinity; FP: 100 mM NaCl, 20 mM Tris-HCl pH 7.4, 5% glycerol, 10 nM FAM-GRE; temperature not stated
Settings: protein: recombinant; chain copies: 2; label: 5' 6-FAM on strand 1; blunt
Measure: Kd (nM)
// return numeric value only (unit: nM, not printed)

For the binder shown here, FAM-GRE (dsDNA) DNA 1: CCAGAACAGAGTGTTCTGA DNA 2: TCAGAACACTCTGTTCTGG , give the reported Kd. 53
